# assay.target: Histone deacetylase 1 (Homo sapiens, UniProt Q13547)
# Sequence (Q13547 whole entry): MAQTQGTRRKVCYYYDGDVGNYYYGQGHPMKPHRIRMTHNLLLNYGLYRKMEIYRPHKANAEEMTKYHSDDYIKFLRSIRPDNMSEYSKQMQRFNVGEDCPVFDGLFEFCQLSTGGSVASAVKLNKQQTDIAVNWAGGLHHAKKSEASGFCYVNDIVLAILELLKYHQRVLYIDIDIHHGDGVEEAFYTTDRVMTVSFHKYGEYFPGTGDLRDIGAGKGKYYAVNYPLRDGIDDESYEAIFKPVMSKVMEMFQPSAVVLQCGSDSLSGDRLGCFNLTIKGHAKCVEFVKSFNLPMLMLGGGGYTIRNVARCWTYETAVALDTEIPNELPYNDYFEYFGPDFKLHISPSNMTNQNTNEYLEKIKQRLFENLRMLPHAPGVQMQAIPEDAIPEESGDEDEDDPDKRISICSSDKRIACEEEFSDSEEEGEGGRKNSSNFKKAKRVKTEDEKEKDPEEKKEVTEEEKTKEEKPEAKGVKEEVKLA
# test.details: Inhibition of recombinant human HDAC1 using ZMAL as substrate incubated for 90 mins by fluorescence based micro plate assay
readout.name: pIC50
Numbers only, as −log10 of the molar value.

Example entries and their recorded answers appear below.
Form: molecule = O=C(NO)c1ccc(Cl)c(NC(=O)c2ccc(-c3ccccc3)cc2)c1 ; pIC50 = 4.96

Form: molecule = CCOc1ccc(C(=O)NO)cc1NC(=O)c1ccc(Cl)cc1Cl ; pIC50 = 4.68

Continuing:
Form: molecule = Cc1ccc(C(=O)NO)cc1C(=O)Nc1ccc(Cl)cc1 ; pIC50 = 5.47

###

# assay.target: HDAC6 (protein deacetylase HDAC6) (Homo sapiens, UniProt Q9UBN7)
# Sequence (Q9UBN7 whole entry): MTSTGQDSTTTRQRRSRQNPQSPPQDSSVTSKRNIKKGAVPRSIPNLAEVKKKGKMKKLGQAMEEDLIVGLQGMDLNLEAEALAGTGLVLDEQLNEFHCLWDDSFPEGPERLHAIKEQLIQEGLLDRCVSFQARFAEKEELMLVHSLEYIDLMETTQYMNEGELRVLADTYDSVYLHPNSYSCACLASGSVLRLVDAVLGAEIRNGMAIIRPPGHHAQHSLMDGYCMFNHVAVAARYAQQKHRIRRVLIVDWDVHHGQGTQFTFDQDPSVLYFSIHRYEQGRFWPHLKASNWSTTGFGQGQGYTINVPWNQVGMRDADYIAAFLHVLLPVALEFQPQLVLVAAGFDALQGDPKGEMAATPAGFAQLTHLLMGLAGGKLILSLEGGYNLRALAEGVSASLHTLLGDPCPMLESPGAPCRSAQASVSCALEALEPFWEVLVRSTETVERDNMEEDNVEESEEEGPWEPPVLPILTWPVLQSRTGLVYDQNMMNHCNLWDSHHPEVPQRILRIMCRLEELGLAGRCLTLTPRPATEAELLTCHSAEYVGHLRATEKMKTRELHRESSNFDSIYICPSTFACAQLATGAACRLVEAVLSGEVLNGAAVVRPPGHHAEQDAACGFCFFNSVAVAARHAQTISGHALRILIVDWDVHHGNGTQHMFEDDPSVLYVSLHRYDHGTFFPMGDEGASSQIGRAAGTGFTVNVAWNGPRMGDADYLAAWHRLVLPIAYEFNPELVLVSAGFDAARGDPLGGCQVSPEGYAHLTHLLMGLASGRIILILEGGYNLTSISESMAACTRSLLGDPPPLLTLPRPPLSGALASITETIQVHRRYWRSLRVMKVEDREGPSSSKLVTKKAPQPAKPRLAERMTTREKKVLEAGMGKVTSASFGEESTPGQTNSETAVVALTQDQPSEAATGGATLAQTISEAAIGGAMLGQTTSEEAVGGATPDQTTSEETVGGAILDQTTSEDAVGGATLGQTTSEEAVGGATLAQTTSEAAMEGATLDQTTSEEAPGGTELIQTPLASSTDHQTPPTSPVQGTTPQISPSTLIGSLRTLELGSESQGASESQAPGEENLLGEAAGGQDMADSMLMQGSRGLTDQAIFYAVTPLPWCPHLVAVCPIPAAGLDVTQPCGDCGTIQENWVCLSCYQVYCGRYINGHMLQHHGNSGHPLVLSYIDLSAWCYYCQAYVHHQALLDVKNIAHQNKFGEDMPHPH
# test.details: Inhibition of recombinant human HDAC6 at 1 uM using ZMAL as substrate incubated for 90 mins by fluorescence based micro plate assay relative to control
# settings: recombinant human HDAC6, probe ZMAL
readout.name: inhibition at 1.5 h, 1 µM (%)
Give bare numbers, in %.

Form: compound = O=C(NO)c1ccc(Cl)c(C(=O)Nc2ccc(Cl)cc2)c1 ; inhibition at 1.5 h, 1 µM = 94

Form: compound = COc1ccc(C(=O)NO)cc1NC(=O)c1ccc(-c2ccccc2)cc1Cl ; inhibition at 1.5 h, 1 µM = 15

Form: compound = COc1ccc(C(=O)NO)cc1C(=O)Nc1cccc(Cl)c1 ; inhibition at 1.5 h, 1 µM = 25

With those in mind, consider the next compound.
Form: compound = COc1ccc(NC(=O)c2cc(C(=O)NO)ccc2OC)cc1 ; inhibition at 1.5 h, 1 µM = 18

###

# assay.target: UniProt Q9UBN7
# test.details: Inhibition of recombinant human HDAC6 using ZMAL as substrate incubated for 90 mins by fluorescence based micro plate assay
Please go through the items and note down their pIC50.
One number for each entry, as −log10 of the molar value.

Report pIC50 for each item below.
1. CCOc1ccc(C(C)=O)cc1NC(=O)c1cc(C(=O)NO)ccc1Cl
2. O=C(NO)c1ccc(Cl)c(NC(=O)c2ccc(-c3ccccc3)cc2)c1
3. CCOc1ccc(C(C)=O)cc1NC(=O)c1cccc(C(=O)NO)c1
4. CSc1ccc(C(=O)NO)cc1NC(=O)c1ccc(-c2ccccc2)cc1

[reply]
1: 6.96; 2: 6.80; 3: 6.92; 4: 5.82

###

# assay.target: Histone deacetylase 8 (Homo sapiens)
# Sequence (whole entry): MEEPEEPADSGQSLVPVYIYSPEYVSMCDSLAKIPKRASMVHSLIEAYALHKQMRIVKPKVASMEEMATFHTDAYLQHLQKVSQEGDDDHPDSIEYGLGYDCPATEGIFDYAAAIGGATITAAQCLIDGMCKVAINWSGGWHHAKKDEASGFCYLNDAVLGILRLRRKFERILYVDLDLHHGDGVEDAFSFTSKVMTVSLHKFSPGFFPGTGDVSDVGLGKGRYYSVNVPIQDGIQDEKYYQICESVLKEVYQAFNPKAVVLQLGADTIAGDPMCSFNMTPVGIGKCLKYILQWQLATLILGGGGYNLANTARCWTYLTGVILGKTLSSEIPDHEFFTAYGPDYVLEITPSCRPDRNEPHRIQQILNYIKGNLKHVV
# test.details: Inhibition of human recombinant HDAC8 at 1 uM using H2N-Arg-His-Lys(Ac)-Lys(Ac)-AMC as substrate after 90 mins by fluorescence based micro plate assay
Please go through the items and note down their inhibition.
Answers are plain numbers, in %.

Example entries and their recorded answers appear below.
Form: molecule = CCOc1ccc(C(C)=O)cc1NC(=O)c1cc(C(=O)NO)ccc1OC ; inhibition = 61

Form: molecule = Cc1ccc(C(=O)NO)cc1NC(=O)c1cccc(OCc2ccccc2)c1 ; inhibition = 60

With those in mind, consider the next molecule.
Form: molecule = COc1ccc(C(=O)NO)cc1NC(=O)c1cccc(OCc2ccccc2)c1 ; inhibition = 59
